The following compounds are shown together with reported pIC50 values.
Target: recombinant human NF-kappaB-inducing kinase (NIK/MAP3K14) (Homo sapiens)
Sequence (Q99558 whole entry): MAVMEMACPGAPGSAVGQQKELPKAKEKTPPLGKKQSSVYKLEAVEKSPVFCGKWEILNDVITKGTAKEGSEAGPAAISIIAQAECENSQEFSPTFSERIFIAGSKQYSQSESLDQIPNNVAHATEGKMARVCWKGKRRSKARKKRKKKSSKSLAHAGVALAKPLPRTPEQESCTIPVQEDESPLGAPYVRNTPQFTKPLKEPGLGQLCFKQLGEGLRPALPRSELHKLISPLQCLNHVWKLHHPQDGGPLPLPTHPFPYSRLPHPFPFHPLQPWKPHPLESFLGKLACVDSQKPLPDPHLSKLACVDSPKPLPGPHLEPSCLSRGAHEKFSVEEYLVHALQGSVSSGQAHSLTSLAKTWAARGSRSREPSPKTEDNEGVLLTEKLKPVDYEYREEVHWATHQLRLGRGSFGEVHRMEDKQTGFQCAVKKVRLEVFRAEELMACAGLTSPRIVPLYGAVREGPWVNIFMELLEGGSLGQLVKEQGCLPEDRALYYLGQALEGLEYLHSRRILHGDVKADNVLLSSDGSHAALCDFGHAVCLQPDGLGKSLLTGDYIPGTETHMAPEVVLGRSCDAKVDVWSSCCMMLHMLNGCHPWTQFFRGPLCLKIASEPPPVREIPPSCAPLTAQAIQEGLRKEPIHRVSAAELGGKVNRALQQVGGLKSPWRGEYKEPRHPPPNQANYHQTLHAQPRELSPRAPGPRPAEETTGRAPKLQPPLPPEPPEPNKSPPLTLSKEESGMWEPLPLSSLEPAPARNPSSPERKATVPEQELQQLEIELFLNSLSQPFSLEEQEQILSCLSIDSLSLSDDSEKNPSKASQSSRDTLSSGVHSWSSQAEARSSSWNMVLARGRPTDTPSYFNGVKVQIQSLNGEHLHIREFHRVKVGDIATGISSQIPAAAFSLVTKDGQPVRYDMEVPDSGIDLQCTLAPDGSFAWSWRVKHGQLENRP
Assay: Biological Assay B: inhibition of auto-phosphorylation of recombinant human NIK/MAP3K14 (AlphaScreen), performed at 2 locations
Type: biochemical
Conditions: location 2; AlphaScreen auto-phosphorylation; averaged values; read-out: Assay B location 2 IC50
pIC50: −log10 of the molar value.
Observed Property: pIC50

COC1CCN(C(=O)c2ccc(Nc3nccc(-c4cnc5c(c4)C(C)(CO)CN5)n3)c(C)c2)CC1 (stereo not shown) [Compound 121] | 8.14
COc1ccc(CO)cc1Nc1nccc(-c2cnc3c(c2)C(C)(CO)CN3)n1 (stereo not shown) [Compound 204] | 7.97
CC1(CO)CNc2ncc(-c3ccnc(Nc4cc(Cl)ccc4Cl)n3)cc21 (stereo not shown) [Compound 196] | 8.40
COc1cc(C(=O)N2CCC(OC)CC2)c(Cl)cc1Nc1nccc(-c2cnc3c(c2)C(C)(CO)CN3)n1 (stereo not shown) [Compound 296] | 8.92
COc1cc(-c2ccnn2C)ccc1Nc1nccc(-c2cnc3c(c2)C(C)(CO)CN3)n1 (stereo not shown) [Compound 203] | 7.51
COc1cc(Nc2nccc(-c3cnc4c(c3)C(C)(CO)CN4)n2)ccc1-c1cnn(C)c1 (stereo not shown) [Compound 188] | 8.26
Cc1cc(C(=O)N2CCOCC2)ccc1Nc1nccc(-c2cnc3c(c2)C(C)(CO)CN3)n1 (stereo not shown) [Compound 120] | 8.11
COc1cc(N2CC(OC)C2)c(F)cc1Nc1nccc(-c2cnc3c(c2)C(C)(CO)CN3)n1 (single isomer, unassigned) [Compound 298] | 8.64
COc1cc(C#N)c(C)c(Nc2nccc(-c3cnc4c(c3)C(C)(CO)CN4)n2)c1 (stereo not shown) [Compound 226] | 8.39
COc1cc(N2CCN(C3CC3)CC2)c(Cl)cc1Nc1nccc(-c2cnc3c(c2)C(C)(CO)CN3)n1 (stereo not shown) [Compound 309] | 8.66
CNC(=O)c1ccc(C)c(Nc2nccc(-c3cnc4c(c3)C(C)(CO)CN4)n2)c1 (stereo not shown) [Compound 219] | 7.21
COc1cc(S(C)(=O)=O)c(F)cc1Nc1nccc(-c2cnc3c(c2)C(C)(CO)CN3)n1 (stereo not shown) [Compound 12] | 8.80
COc1ccc(F)cc1Nc1nccc(-c2cnc3c(c2)C(C)(CO)CN3)n1 (stereo not shown) [Compound 182] | 8.52
COCCN(C)c1cc(OC)c(Nc2nccc(-c3cnc4c(c3)C(C)(CO)CN4)n2)cc1Cl (stereo not shown) [Compound 5] | 8.39
COc1cc(N2CCC(O)CC2)c(Cl)cc1Nc1nccc(-c2cnc3c(c2)C(C)(CO)CN3)n1 (stereo not shown) [Compound 301] | 8.96
COc1cc(CN2CCOCC2)ccc1Nc1nccc(-c2cnc3c(c2)C(C)(CO)CN3)n1 (stereo not shown) [Compound 165] | 7.63
